System: HCT-116
Experiment: Cytotoxicity against human HCT116 cells assessed as decrease in cell viability after 72 hrs by MTT assay
Format: functional, cell-based
Details: HCT-116, 72 h

molecule	IC50 / µM
CC1(C)C=Cc2cc3c(=O)c4c(O)cc(O)cc4oc3c(O)c2O1	4.7
CC(C)=CCC/C(C)=C/C[C@@H]1C(C)(C)[C@@]2(CC=C(C)C)C(=O)c3c(oc4cc(O)c(O)cc4c3=O)[C@](CC=C(C)C)(C2=O)C1(C)C [OBLONGIFOLIN G]	2.9
CC(C)=CCC/C(C)=C/C[C@H]1C(C)(C)[C@@]2(CC=C(C)C)C(=O)c3c(oc4cc(O)c(O)cc4c3=O)[C@](CC=C(C)C)(C2=O)C1(C)C [OBLONGIFOLIN F]	2.9
CC(C)=CCC/C(C)=C/C[C@@H]1C[C@]2(CC=C(C)C)C(=O)[C@@](CC=C(C)C)(C(=O)C(C(=O)c3cccc(O)c3)=C2O)[C@@]1(C)CCC=C(C)C [GARCICOWIN B]	6
COc1cc(O)c2c(=O)c3ccc(O)c(O)c3oc2c1CCC(C)(C)O [NIGROLINEAXANTHONE T]	3.7

Measured values drawn from ChEMBL document CHEMBL3286328 for this set.
